Test system: SEM cells
Assay Protocol: cell viability relative to DMSO control; higher = less cytotoxic
Measurement Parameters: HPLM + 10% dialyzed FBS; 48 h; 46.1 µM
Quantity Measured: cell viability (%)
Reply numerically in %, unit not repeated.

Observe how each entry below is paired with its result.
[
  {
    "Compound": "O=C(NCCO[N+](=O)[O-])c1cccnc1",
    "cell viability, %": 115
  },
  {
    "Compound": "N[C@@H](Cc1c[nH]c2ccc(O)cc12)C(=O)O",
    "cell viability, %": 80.8
  },
  {
    "Compound": "FC1=CC=C(CN2\\C=C/C=C(/C(=O)N[C@@H](COC3=CC4=C(NC(=O)N4)C=C3)C5=CC=CC=C5)C2=O)C=C1F",
    "cell viability, %": 41.8
  }
]

Query: Look at this compound and give its reported cell viability. "CN1CCN(Cc2ccc(NC(=O)Nc3ccc(Oc4cc(NC(=O)C5CC5)ncn4)cc3)cc2C(F)(F)F)CC1"
Reply: 0.399

Query: For "CN(C)/[N+]([O-])=N/Oc1cc(ON[N+](=O)N2CCN(C(=O)c3cc(Cc4n[nH]c(=O)c5ccccc45)ccc3F)CC2)c([N+](=O)[O-])cc1[N+](=O)[O-]" then?
Reply: 105

* * *

Test system: P12-Ichikawa
Assay Protocol: cell viability relative to DMSO control; higher = less cytotoxic
Measurement Parameters: HPLM + 10% dialyzed FBS; 48 h; 0.00702 µM
Quantity Measured: cell viability (%)
Note: unit % is implicit; provide only the numeric part.

[
  {
    "Compound": "CC1(C)Cc2c(sc(NC(=S)NC(=O)c3ccccc3)c2C(=O)O)CO1",
    "Tgt": "P12-Ichikawa",
    "Measure Unit": "%",
    "Measured Number": 107
  },
  {
    "Compound": "O=C(O)c1ccc(-c2c[nH]c3ncc(-c4ccccc4)cc23)cc1C1CCCC1",
    "Tgt": "P12-Ichikawa",
    "Measure Unit": "%",
    "Measured Number": 123
  },
  {
    "Compound": "COc1cccc2c(NCc3ccccc3)nc(-n3c(N)nc4ccccc43)nc12",
    "Tgt": "P12-Ichikawa",
    "Measure Unit": "%",
    "Measured Number": 108
  },
  {
    "Compound": "CN(C)/[N+]([O-])=N/Oc1cc(ON[N+](=O)N2CCN(C(=O)c3cc(Cc4n[nH]c(=O)c5ccccc45)ccc3F)CC2)c([N+](=O)[O-])cc1[N+](=O)[O-]",
    "Tgt": "P12-Ichikawa",
    "Measure Unit": "%",
    "Measured Number": 111
  },
  {
    "Compound": "CC(Cc1ccc(O)c(O)c1)(NN)C(=O)O (stereo not drawn)",
    "Tgt": "P12-Ichikawa",
    "Measure Unit": "%",
    "Measured Number": 107
  },
  {
    "Compound": "O=C([O-])[C@H](CC(=O)N1C[C@H]2CCCC[C@H]2C1)Cc1ccccc1",
    "Tgt": "P12-Ichikawa",
    "Measure Unit": "%",
    "Measured Number": 120
  },
  {
    "Compound": "Cc1ccc(NC(=O)c2cccc(N(C)C)c2)cc1NC(=O)c1ccc(O)cc1",
    "Tgt": "P12-Ichikawa",
    "Measure Unit": "%",
    "Measured Number": 118
  }
]

Now, please, on to the next compound.
Query: Request - read-out cell viability | tested on P12-Ichikawa | compound "CC(=O)OCC(=O)[C@@]12OC(C)(C)O[C@@H]1C[C@H]3[C@@H]4C[C@H](F)C/5=C/C(=O)/C=C\[C@]5(C)[C@@]4(F)[C@@H](O)C[C@]23C"
Reply: 111
